# System: SF-295
# experiment_summary: NCI tumour cell line growth inhibition, 48 h
Calls of active or inactive are those of the source. Cut-off read from the data, not from the text of the source: active = GI50 up to about 1.1 µM and inactive = higher.
Thanks in advance; please answer with one of these: 1 (active), 0 (inactive)

Outcome? `CCCNC(=O)NNC(=O)c1c[nH]c2nc(C)ccc2c1=O` 0

Identify the outcome logged in this assay for the compound shown: `COC(=O)C(=O)Nc1cc2c3c(c1)Oc1cccc4c1C3(C)c1c(cccc1O2)O4` 0

Hi, sorry to bother you, what did the test record for `O=C(c1ccccc1)c1cccc(C(=O)c2ccccc2)c1` ? 0

Lab log entry: `CCn1c(=O)c(C(=O)O)c(Cl)c2cc3c(cc21)OCO3` — outcome as called in the assay? 0

Just curious, what result did C/C=C/C=C\C=C/C(O)C(C)C(CCC(C)C1OC(=O)C=CC1C)OP(=O)(O)O (stereo unspecified) get here? 1

GET /call?item= `N#CC(C#N)=Cc1ccc(Oc2ccccc2)cc1` returns the recorded outcome of this test. 0
